- system_name: HIV-1 NL4-3 Env on infected cells (HIV-1 group M subtype B, NL4-3 (pNL4-3 …, strain))
measured_endpoint: binding result

INSERT INTO results (binder, measurement) VALUES
  ('c5260 (antibody, V domains shown) VH: QVRLQESGPRLVKPSETLSLTCTVSGASVTSYSWSWIRYSAERGLEWIGRILPTIGSNRANPSLHFRVGMSADTSKNLLSLRLTSLTAADTAIYFCARDLVRDYDSWGGDYSTFHGIDVWGQGTTVIVSL VL: NSLLTQPPSVSESPGKTVNISCTRTSGAITWDFVQWYQKRPGSVPTVVIYANDRRPSGVPDRFSGSIDSSSNSAALTISRLKTEDEAEYYCQSFHPRSHVVFGGGTKLTVL', 'binds'),
  ('c6539 (antibody, V domains shown) VH: QVRLIQSGTEVARPGSSVRVSCQVPGDILDKNAVAWVRQAPGQVPEFMGGLPSNFAYGVRAQKFEDRLSIIPDRSTNTVDMILRSVTSHDTAIYYCVTCPHRTTVIMSFYFEFWGQGTLVAVSS VL: DVTVTQSPASVSASVGDRVTISCRASEDLMGRLAWYQQKPGHAPKLLISHTSTLQSGVPSRFTGSGSGADFTLTISSLQPEDSATYYCQQAQRFPPTFGQGTRLEIK', 'binds'),
  ('c9416 (antibody, V domains shown) VH: QVQLVQSGAEVRKPGSSVKVSCKASGGSFSDFGISWVRQAPGQGLEWMGGIIPGFETANYGQDFQGRVTMTADESTGTAYMELRRLRSEDTAVYYCATTGQQNDYYSSGLSYKLNYYLGLDVWGQGTAVSVSS VL: QSVLTQPPSSSGTPGQRVTISCSGSSSNIGSNSVNWYQQLPGAAPKVVISANHQRPSGVPDRFSASKSGASASLAISGLQSEDEADYYCAAWDDSRNAWVFGGGTKLTVL', 'binds');
